The reported measurements were obtained from paper PMC6728800.

ASSAY_SYSTEM: human glyoxalase I (GLO I) (Homo sapiens, UniProt Q04760)
Construct: gene GLO1; recombinant GLO I
Sequence (Q04760 2-184): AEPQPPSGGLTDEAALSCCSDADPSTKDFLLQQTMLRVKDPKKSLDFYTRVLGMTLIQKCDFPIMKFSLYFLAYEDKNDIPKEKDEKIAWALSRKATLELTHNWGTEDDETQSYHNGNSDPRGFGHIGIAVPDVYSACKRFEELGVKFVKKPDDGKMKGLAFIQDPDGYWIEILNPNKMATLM
PROTOCOL_SUMMARY: spectrophotometric assay of S-D-lactoylglutathione formation at […] nm with recombinant GLO I
Assay type: biochemical
CONDITION_PARAMETERS: read-out: IC50
PARAMETER: pIC50
Recall that pIC50 is obtained by taking minus log10 of the concentration measured in molar.

[in] Suppose we examine the molecule Oc1cc(O)cc(C2c3c(/C=C/c4ccc(O)c(O)c4)cc(O)cc3OC2c2ccc(O)c(O)c2)c1 (stereo not shown) [scirpusin B] ; what pIC50 value has been reported?
[out] 5.38

====

ASSAY_SYSTEM: human glyoxalase I (GLO I) (Homo sapiens, UniProt Q04760)
Construct: gene GLO1; recombinant GLO I
PROTOCOL_SUMMARY: spectrophotometric assay of S-D-lactoylglutathione formation at […] nm with recombinant GLO I
Type: biochemical
PARAMETER: pIC50
Recall that pIC50 is obtained by taking minus log10 of the concentration measured in molar.

[in] Suppose we examine the molecule Oc1cc(O)cc(/C=C/c2ccc(O)c(O)c2)c1 ; what pIC50 value has been reported?
[out] 6.12
